Experiment: Cytotoxic effect: percentage of permeabilized (very fluorescent, Hoechst 33342) TCC97-7 cells
Assay type: cell-based
Conditions: human, 0.1 μM, read-out: Cytotoxicity (% of permeable cells)
readout: cytotoxicity at 3 days, 0.1 µM

Take a look at these entries with their results.
{"columns": ["molecule", "cytotoxicity at 3 days, 0.1 µM"],
 "data": [
  ["Cn1c(=O)n(Cc2ccc(F)cc2)c(=O)c2cc(C(=O)c3nc(-c4cccnc4)c4ccccn34)ccc21", "4%"],
  ["CN(C)CCNC(=O)c1cccc(-c2nc(C(=O)c3ccc4c(c3)c(=O)n(Cc3ccc(F)cc3)c(=O)n4C)n3ccccc23)c1.Cl [compound 116, hydrochloride]", "2%"],
  ["CCCn1c(=O)[nH]c2ccc(C(=O)c3nc(-c4cccc(C(N)=O)c4)c4ccccn34)cc2c1=O", "3%"]
]}

Here's the next entry for you.
Look up cytotoxicity at 3 days, 0.1 µM of CCCn1c(C)nc2ccc(C(=O)c3nc(-c4cccc(C(N)=O)c4)c4ccccn34)cc2c1=O and report it.
5%

====

System: TCC97-7 bladder cancer tumour cells carrying the Ser249Cys mutation of FGF receptor 3
Assay: Cytotoxic effect: percentage of permeabilized (very fluorescent, Hoechst 33342) TCC97-7 cells
Type: cell-based
Settings: 1 μM, 3 days
readout: Cytotoxicity (% of permeable cells) (%)
Report the value in % with no unit label.

// solved cases for Cytotoxicity (% of permeable cells) follow
{"columns": ["smiles-notation", "measurement"],
 "data": [
  ["Cn1c(=O)n(CCc2ccc(F)cc2)c(=O)c2cc(C(=O)c3nc(-c4cccc(C(=O)[O-])c4)c4ccccn34)ccc21.[Na+]", 4],
  ["Cn1c(=O)n(Cc2ccc(F)cc2)c(=O)c2cc(C(=O)c3nc(-c4cccc(C(=O)[O-])c4)c4ccccn34)ccc21.[Na+]", 6],
  ["Cn1c(=O)n(Cc2ccc(F)cc2)c(=O)c2cc(C(=O)c3ncc4ccccn34)ccc21", 10],
  ["Cc1nnc(-c2cccc(-c3nc(C(=O)c4ccc5c(c4)c(=O)n(Cc4ccc(F)cc4)c(=O)n5C)n4ccccc34)c2)o1", 1],
  ["CCCn1c(=O)n(CCCC(C)C)c(=O)c2cc(C(=O)c3nc(-c4cccc(C(=O)[O-])c4)c4ccccn34)ccc21.[Na+]", 5],
  ["CCCn1c(=O)n(Cc2ccc(C)s2)c(=O)c2cc(C(=O)c3nc(-c4cccc(C(=O)[O-])c4)c4ccccn34)ccc21.[Na+]", 4]
]}

Supply recorded Cytotoxicity (% of permeable cells) for CCCn1c(=O)n(CCOc2ccc(F)cc2)c(=O)c2cc(C(=O)c3nc(-c4cccc(C(=O)[O-])c4)c4ccccn34)ccc21.[Na+] here.
6

Please report Cytotoxicity (% of permeable cells) for the following molecule: CCOC(=O)c1cccc(-c2nc(C(=O)c3ccc4c(c3)c(=O)n(Cc3ccc(F)cc3)c(=O)n4C)n3ccccc23)c1
2

Please give the documented Cytotoxicity (% of permeable cells) of Cn1c(=O)n(Cc2cccc(F)c2)c(=O)c2cc(C(=O)c3nc(-c4cccc(C(N)=O)c4)c4ccccn34)ccc21
4

Fill in Cytotoxicity (% of permeable cells) for record Cc1ccc(Cn2c(=O)c3cc(C(=O)c4nc(-c5cccnc5)c5ccccn45)ccc3n(C)c2=O)s1
5

Name the recorded Cytotoxicity (% of permeable cells) of the molecule listed here: Cc1ccc(Cn2c(=O)c3cc(C(=O)c4nc(-c5cccc(C(=O)[O-])c5)c5ccccn45)ccc3n(C)c2=O)s1.[Na+]
2

Identify measured Cytotoxicity (% of permeable cells) associated with COCn1c(=O)n(Cc2ccc(F)cc2)c(=O)c2cc(C(=O)c3nc(-c4cccc(C(=O)[O-])c4)c4ccccn34)ccc21.[Na+]
5

Give the reported value of Cytotoxicity (% of permeable cells) for this record: CCCn1c(=O)n(Cc2ccc(F)cc2)c(=O)c2cc(C(=O)c3nc(-c4cnc(N(C)C)nc4)c4ccccn34)ccc21
4

====

Tested on: TCC97-7 bladder cancer tumour cells carrying the Ser249Cys mutation of FGF receptor 3
Experiment: Cytotoxic effect: percentage of permeabilized (very fluorescent, Hoechst 33342) TCC97-7 cells
Assay type: cell-based
Details: 0.01 μM, 3 days
Below, each entry is listed with its recorded Cytotoxicity (% of permeable cells).
Answer with the number, then the unit.

{"columns": ["smiles-notation", "Cytotoxicity (% of permeable cells)"],
 "data": [
  ["Cn1c(=O)n(CCc2ccc(F)cc2)c(=O)c2cc(C(=O)c3nc(-c4cccc(C(=O)[O-])c4)c4ccccn34)ccc21.[Na+]", "4%"]
]}

Now consider a different compound.
Identify the reported Cytotoxicity (% of permeable cells) for the following entry. Cn1c(=O)n(Cc2ccc(F)cc2)c(=O)c2cc(C(=O)c3nc(-c4cccc(C(=O)[O-])c4)c4ccccn34)ccc21.[Na+]
5%

====

Tested on: TCC97-7 bladder cancer tumour cells carrying the Ser249Cys mutation of FGF receptor 3
Test: Inhibition of serum-induced proliferation of TCC97-7 bladder cancer cells (count of Hoechst 33342-labelled nuclei after 3 days)
Format: cell-based
Conditions: 1 μM, TCC97-7 cells in presence of serum
readout: Inhibition of proliferation (%)
Give your result in % as a bare value.

Take a look at these entries with their results.
{"columns": ["smiles-notation", "readout", "readout-units", "measurement"],
 "data": [
  ["CCOC(=O)c1cccc(-c2nc(C(=O)c3ccc4c(c3)c(=O)n(Cc3ccc(F)cc3)c(=O)n4C)n3ccccc23)c1", "Inhibition of proliferation (%)", "%", 17],
  ["Cn1c(=O)n(Cc2ccc(F)cc2)c(=O)c2cc(C(=O)c3nc(-c4cccc(C(=O)[O-])c4)c4ccccn34)ccc21.[Na+]", "Inhibition of proliferation (%)", "%", 55],
  ["CCCn1c(=O)n(Cc2ccc(C)s2)c(=O)c2cc(C(=O)c3nc(-c4cccc(C(=O)[O-])c4)c4ccccn34)ccc21.[Na+]", "Inhibition of proliferation (%)", "%", 27],
  ["Cn1c(=O)n(Cc2cccc(F)c2)c(=O)c2cc(C(=O)c3nc(-c4cccc(C(N)=O)c4)c4ccccn34)ccc21", "Inhibition of proliferation (%)", "%", 6],
  ["Cn1c(=O)n(CCc2ccc(F)cc2)c(=O)c2cc(C(=O)c3nc(-c4cccc(C(=O)[O-])c4)c4ccccn34)ccc21.[Na+]", "Inhibition of proliferation (%)", "%", 15]
]}

Consider the compound Cn1c(=O)n(Cc2ccc(F)cc2)c(=O)c2cc(C(=O)c3ncc4ccccn34)ccc21 . State its measured Inhibition of proliferation (%).
28

Give Inhibition of proliferation (%) for the following compound: CCCn1c(=O)n(CCOc2ccc(F)cc2)c(=O)c2cc(C(=O)c3nc(-c4cccc(C(=O)[O-])c4)c4ccccn34)ccc21.[Na+]
80

Give Inhibition of proliferation (%) for CCCn1c(=O)n(Cc2ccc(F)cc2)c(=O)c2cc(C(=O)c3nc(-c4cnc(N(C)C)nc4)c4ccccn34)ccc21
20

Item Cc1ccc(Cn2c(=O)c3cc(C(=O)c4nc(-c5cccc(C(=O)[O-])c5)c5ccccn45)ccc3n(C)c2=O)s1.[Na+] : provide Inhibition of proliferation (%)
40

Report measured Inhibition of proliferation (%); entry is CCCn1c(=O)n(CCCC(C)C)c(=O)c2cc(C(=O)c3nc(-c4cccc(C(=O)[O-])c4)c4ccccn34)ccc21.[Na+]
45

Tell me measured Inhibition of proliferation (%) for Cc1ccc(Cn2c(=O)c3cc(C(=O)c4nc(-c5cccnc5)c5ccccn45)ccc3n(C)c2=O)s1 please.
13

Report measured Inhibition of proliferation (%); entry is Cc1nnc(-c2cccc(-c3nc(C(=O)c4ccc5c(c4)c(=O)n(Cc4ccc(F)cc4)c(=O)n5C)n4ccccc34)c2)o1
−7

Item COCn1c(=O)n(Cc2ccc(F)cc2)c(=O)c2cc(C(=O)c3nc(-c4cccc(C(=O)[O-])c4)c4ccccn34)ccc21.[Na+] : provide Inhibition of proliferation (%)
14

====

Assay: Cytotoxic effect: percentage of permeabilized (very fluorescent, Hoechst 33342) TCC97-7 cells
Format: cell-based
Settings: human, 1 μM, read-out: Cytotoxicity (% of permeable cells)
Catalogue of compounds with associated cytotoxicity at 3 days, 1 µM
Give a bare numeral; the unit % is implied.

As a guide, the following entries are already answered.
{"columns": ["compound", "readout-units", "measurement"],
 "data": [
  ["Cn1c(=O)n(Cc2ccc(F)cc2)c(=O)c2cc(C(=O)c3nc(-c4cccnc4)c4ccccn34)ccc21", "%", 16],
  ["CCCn1c(=O)[nH]c2ccc(C(=O)c3nc(-c4cccc(C(N)=O)c4)c4ccccn34)cc2c1=O", "%", 8],
  ["CN(C)CCNC(=O)c1cccc(-c2nc(C(=O)c3ccc4c(c3)c(=O)n(Cc3ccc(F)cc3)c(=O)n4C)n3ccccc23)c1.Cl [compound 116, hydrochloride]", "%", 2]
]}

Here is another compound to look at.
Answer with reported cytotoxicity at 3 days, 1 µM of CCCn1c(C)nc2ccc(C(=O)c3nc(-c4cccc(C(N)=O)c4)c4ccccn34)cc2c1=O
6
